# tgt: UniProtKB P21554
# Sequence (P21554 whole entry): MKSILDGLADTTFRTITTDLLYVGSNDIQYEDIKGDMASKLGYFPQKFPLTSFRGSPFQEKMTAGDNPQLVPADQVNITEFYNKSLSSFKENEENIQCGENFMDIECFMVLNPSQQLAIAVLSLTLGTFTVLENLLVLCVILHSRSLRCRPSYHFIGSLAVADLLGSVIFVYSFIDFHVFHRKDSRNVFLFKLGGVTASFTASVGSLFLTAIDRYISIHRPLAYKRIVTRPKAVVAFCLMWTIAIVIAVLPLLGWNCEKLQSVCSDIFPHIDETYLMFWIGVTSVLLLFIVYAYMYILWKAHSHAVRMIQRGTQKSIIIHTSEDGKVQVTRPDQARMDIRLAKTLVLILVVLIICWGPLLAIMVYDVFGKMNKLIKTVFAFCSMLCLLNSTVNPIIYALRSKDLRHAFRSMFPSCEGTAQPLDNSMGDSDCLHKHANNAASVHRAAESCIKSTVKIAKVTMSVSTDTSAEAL
# procedure text: biochemical
# Format: binding
# Parameters: expressed in transfected cells; host or cells: Chinese hamster ovary (CHO) cells, membrane preparation
# measurement context: hCB1 pKi, [3H]CP-55,940 radioligand; CHO cell membranes stably transfected with human CB1
So I've got a bunch of compounds here, and I need their pKi values.
Units for pKi: none; it is -log10 of a concentration expressed in mol/L.

Which measured pKi value corresponds to Cc1c(C(=O)NC2CC3CCC2C3)nc(-c2ccc(Cl)cc2Cl)n1-c1ccc(Cl)cc1 (centres unmarked) [Example 84] ?
7.80

Which measured pKi value corresponds to O=C(NN1CCCCC1)c1nc(-c2ccc(Cl)cc2Cl)n(-c2ccc(Br)cc2)c1Cl [Example 109] ?
6.60

Which measured pKi value corresponds to O=C(NN1CCCCC1)c1cn(-c2ccc(Cl)cc2)c(-c2ccc(Cl)cc2F)n1 [Example 30] ?
7.60

Which measured pKi value corresponds to O=C(NC1CCCCC1)c1nc(-c2ccc(Cl)cc2Cl)n(-c2ccc(Cl)cc2)c1I [Example 112] ?
8.20

Which measured pKi value corresponds to Cc1c(C(=O)NN2CCCCC2)nc(-c2ccc(Cl)cc2Cl)n1-c1ccc(C(F)(F)F)cc1 [Example 45] ?
7.80

Which measured pKi value corresponds to Cc1c(C(=O)NN2CCOCC2)nc(-c2ccc(Cl)cc2Cl)n1-c1ccc(Cl)cc1 [Example 94] ?
7.00

Which measured pKi value corresponds to CCCCCNC(=O)c1nc(-c2ccc(Cl)cc2F)n(-c2ccc(Cl)cc2)c1C [Example 67] ?
6.40

Which measured pKi value corresponds to Cc1c(C(=O)NN2CCCCC2)nc(-c2ccc(Cl)cc2Cl)n1-c1ccc(Cl)cc1 [Example 12] ?
7.90

Which measured pKi value corresponds to CCCCCNC(=O)c1nc(-c2ccc(Cl)cc2Cl)n(-c2ccc(Br)cc2)c1CC [Example 21] ?
7.50

Which measured pKi value corresponds to Cc1c(C(=O)Nc2ccccc2)nc(-c2ccc(Cl)cc2Cl)n1-c1ccc(Cl)cc1 [Example 82] ?
8.60

Which measured pKi value corresponds to Cc1c(C(=O)Nc2cccc(C(F)(F)F)c2)nc(-c2ccc(Cl)cc2Cl)n1-c1ccc(Cl)cc1 [Example 104] ?
8.20

Which measured pKi value corresponds to CCc1c(C(=O)NC2CCCCC2)nc(-c2ccc(Cl)cc2Cl)n1-c1ccc(Cl)cn1 [Example 78] ?
8.50

Which measured pKi value corresponds to CCCCCNC(=O)c1nc(-c2ccc(Cl)cc2Cl)n(-c2ccc(Cl)cn2)c1CC [Example 79] ?
7.80

Which measured pKi value corresponds to Cc1c(C(=O)NN2CCCCCC2)nc(-c2ccc(Cl)cc2Cl)n1-c1ccc(Cl)cc1 [Example 92] ?
7.20

Which measured pKi value corresponds to Cc1c(C(=O)NC2CCCCC2)nc(-c2cc(Cl)ccc2Cl)n1-c1ccccc1 [Example 96] ?
8.20

Which measured pKi value corresponds to Cc1ccc(-c2nc(C(=O)NC3CCCCC3)c(C)n2-c2ccc(Cl)cc2)n1C [Example 69] ?
7.40

Which measured pKi value corresponds to Cc1c(C(=O)NC2CC3CCC2C3)nc(-c2ccc(Cl)cc2Cl)n1-c1ccc(Cl)cc1 (centres unmarked) [Example 89] ?
8.20
